Value source: ChEMBL document CHEMBL1122967

Test system: Rattus norvegicus
Assay: Distribution of [125I]AC in thalamus after intravenous administration in rat after 2hours, expressed as percent dose/gram
Format: ADME, organism-based
Details: in vivo
Property Name: Tissue distribution

**Query** What measured Tissue distribution goes with COc1cc(N)c(I)cc1C(=O)NC1CCN(Cc2ccccc2)CC1 ?
**Result** 0.22%

* * *

Tested on: Rattus norvegicus
Assay: Distribution of [125I]iodoclebopride in heart after intravenous administration in rat after 1hour, expressed as percent dose/gram
Assay type: ADME, organism-based
Conditions: in vivo
Property Name: Tissue distribution (%)
Numbers only, in %.

**Query** Please state recorded Tissue distribution (tested on Rattus norvegicus) of COc1cc(N=[N+]=[N-])c(I)cc1C(=O)NC1CCN(Cc2ccccc2)CC1 [IODOAZIDOCLEBOPRIDE]
**Result** 1.61
